TARGET UNDER TEST: Recombinant human Gal3 (rhGal3) (TrueBinding, #QC200361) (human, UniProt P17931 2-250); further: test concentration or dose not given here
MEASUREMENT NOTES: cell-based or functional assay
ASSAY ENDPOINT: % inhibition of IL-6 secretion (%)
Answers are plain numbers, in %.

# BINDER, % inhibition of IL-6 secretion, %
measured = [
    ("847.28D1 (antibody, V domains shown) VH: QVQLVETGPGLVAPSQSLSITCTVSGFSLTSYGVHWIRQSPGKGLEWLGTIWAGGSTDYNSPLMSRLSISKDNSKNQVFLKMNSLQIDDTAIYYCASPPSGYDYDVFASWGQGTLVTVSA VL: DIRMTQSPASLSASVGETVTITCRASGNIHNYLAWYHQKQGKSPQLLVYNVKTLADGVPSRFSGSGSGTQFSLKINSLQPEDFGTYYCQHFWSIFPTFGGGTKLEIK", 78.6),
]

Okay, next one:
// query Reported % inhibition of IL-6 secretion for 847.15F9 (antibody, V domains shown) VH: QVQMKQSGPGLVQPSQSLSITCTVSGFSLINYGVHWVRQSPGKGLEWLGVIWSGGSTDYNAAFISRLSISKDNSKSQVFFKMNSLQADDTAIYYCARIYYYGRGYAMDYWGQGTSVTVSS VL: QIVLSQSPAILSASPGEKVTMTCRASSSVTYMYWYQQKPGSSPQPWIYATSNLASGVPARFSGSGSGTSYSLTISRVEAEDAATYYCQQWSSNPLTFGAGTKLELK : what is it?
// result 16.6
